meta.source: PubChem BioAssay AID1963977

# System: 624824-186-R-J3-PDC multicell spheroids, viability;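 further: luminescent signal used as a stand-in for spheroid viability; spheroids exposed to agents for seven days before luminescence read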
# assay notes: Anticancer human tumor 624824-186-R-J3-PDC patient-derived colon adenocarcinoma cell line growth inhibition [PI3K]; active means viability on the fitted dose curve at most 10% of control; inactive means the rest
# details: second compound 0.1 µM; first compound 10 µM
API: response.call in active, inactive

IN: Outcome logged for C#Cc1c(F)ccc2cc(O)cc(-c3ncc4c(N5CC6CCC(C5)N6)nc(OCC56CCCN5CC(F)C6)nc4c3F)c12 (stereo not given) + CC(Nc1ncnc2nc[nH]c12)c1cc2cccc(Cl)c2c(=O)n1-c1ccccc1 in this assay:
OUT: inactive

IN: How did this test come out for CC1(C)CCC(CN2CCN(c3ccc(C(=O)NS(=O)(=O)c4ccc(NCC5CCOCC5)c([N+](=O)[O-])c4)c(Oc4cnc5[nH]ccc5c4)c3)CC2)=C(c2ccc(Cl)cc2)C1 + COc1c(OCCCN2CCOCC2)ccc2c3n(c(=NC(=O)c4cnc(N)nc4)nc12)CCN3 ?
OUT: inactive

IN: Can you look up the reported call for C[C@@H](NC(=O)c1ncnc(N)c1Cl)c1ncc(C(=O)Nc2cc(C(F)(F)F)c(Cl)cn2)s1 + COc1c(OCCCN2CCOCC2)ccc2c3n(c(=NC(=O)c4cnc(N)nc4)nc12)CCN3 for me?
OUT: inactive

IN: // return assay outcome for Cn1nccc1Nc1nccc(-c2ccn(C(CO)c3ccc(Cl)c(F)c3)c(=O)c2)n1 (stereo not given) + Cc1nc(NC(=O)N2CCCC2C(N)=O)sc1-c1ccnc(C(C)(C)C(F)(F)F)c1
OUT: inactive

IN: What was the test verdict on CNC(=O)c1ccc(N2C(=S)N(c3ccc(C#N)c(C(F)(F)F)c3)C(=O)C2(C)C)cc1F + Cc1nc(NC(=O)N2CCCC2C(N)=O)sc1-c1ccnc(C(C)(C)C(F)(F)F)c1 ?
OUT: inactive

IN: Status in this test for Cn1ncc(Cl)c1-c1cc(C(=O)NC(CN)Cc2cccc(F)c2)sc1Cl (stereo not given) + CC(Nc1ncnc2nc[nH]c12)c1cc2cccc(Cl)c2c(=O)n1-c1ccccc1 ?
OUT: inactive

IN: GET /call?item= C=CC(=O)N1CCN(c2nc(=O)n(-c3c(C)ccnc3C(C)C)c3nc(-c4c(O)cccc4F)c(F)cc23)C(C)C1 (stereo not given) + CC(Nc1ccc2c(c1)OCCn1cc(N3C(=O)OCC3C(F)F)nc1-2)C(N)=O returns the recorded outcome of this test.
OUT: inactive

IN: Hi, sorry to bother you, what did the test record for CNC(=O)c1ccc(N2C(=S)N(c3ccc(C#N)c(C(F)(F)F)c3)C(=O)C2(C)C)cc1F + CC(Nc1ccc2c(c1)OCCn1cc(N3C(=O)OCC3C(F)F)nc1-2)C(N)=O ?
OUT: inactive

IN: Which outcome did this test record for the compound CC1(C)CCC(Nc2ncc(C(F)(F)F)c(-c3c[nH]c4c(P(C)(C)=O)c(C#N)ccc34)n2)CN1 (stereo not given) + Cc1nc(NC(=O)N2CCCC2C(N)=O)sc1-c1ccnc(C(C)(C)C(F)(F)F)c1 ?
OUT: active

IN: For this compound, state the assay outcome: CC1(C)CCC(CN2CCN(c3ccc(C(=O)NS(=O)(=O)c4ccc(NCC5CCOCC5)c([N+](=O)[O-])c4)c(Oc4cnc5[nH]ccc5c4)c3)CC2)=C(c2ccc(Cl)cc2)C1 + CC(Nc1ccc2c(c1)OCCn1cc(N3C(=O)OCC3C(F)F)nc1-2)C(N)=O
OUT: inactive
